System: Oocyte
ASSAY TEXT: Agonist activity at rat KA receptor expressed in Xenopus oocytes at 100 uM
Assay type: functional, cell-based
The source made the active and inactive calls. The calls are words filed in the database; no cut-off is given here.
MEASURED QUANTITY: Activity

structure_smiles_string=Cc1cccc([C@H]2CC[C@](C(=O)O)([C@@H](O)[C@@H](N)C(=O)O)N2)c1 measured_quantity=Activity measurement=inactive
structure_smiles_string=Cc1ccc([C@H]2CC[C@](C(=O)O)([C@@H](O)[C@@H](N)C(=O)O)N2)cc1 measured_quantity=Activity measurement=inactive
structure_smiles_string=N[C@@H](C(=O)O)[C@H](O)[C@@]1(C(=O)O)CC[C@H](c2ccccc2)N1 measured_quantity=Activity measurement=inactive
structure_smiles_string=Cc1ccccc1[C@H]1CC[C@](C(=O)O)([C@@H](O)[C@@H](N)C(=O)O)N1 measured_quantity=Activity measurement=inactive
